FYI, the data here is from PubChem BioAssay (NCATS).

- System: CP269
- TEST_METHOD_NOTES: qHTS profiling for inhibitors of Plasmodium falciparum proliferation (AID 504749); note: nearly all actives have a fitted effect of over 60% in size
- EXPERIMENTAL_SETUP: P. falciparum in erythrocytes, SYBR Green DNA, 72 h; series mostly up to 28.7 µM
Results filed as inconclusive are left out. Activity calls are given as the source filed them. Calls come from the whole dose curve; as a rule, active = well fitted inhibition curve with a large enough effect; inconclusive = small, poorly fitted or top-dose-only effect; inactive = flat fitted curve, though single readings scatter.
Possible outcomes: YES (active), NO (inactive)

>>> assigned_label("CCCCCN(CCCCC)C(=O)C(CCC(=O)O)NC(=O)c1ccc(Cl)c(Cl)c1 (stereo not given)")
"NO"
>>> assigned_label("CN1C[C@H](C(=O)N[C@]2(C)O[C@@]3(O)[C@@H]4CCCN4C(=O)[C@H](Cc4ccccc4)N3C2=O)C[C@@H]2c3cccc4[nH]cc(c34)C[C@H]21")
"YES"
>>> assigned_label("CCCC(C(=O)OCCN(CC)CC)(c1ccccc1)c1ccccc1")
"YES"
>>> assigned_label("CCN(CC)CCNC(=O)c1ccc(NC(C)=O)cc1")
"NO"
>>> assigned_label("Cc1ccc(S(=O)(=O)NC(=O)NN2CCCCCC2)cc1")
"NO"
